Origin of the recorded values: the supplement of paper PMC8882468

# System: HCI-002 (organoid from a triple-negative breast cancer xenograft)
# assay_text: CTG-3D luminescence at 96 h relative to day-0 seeding control (ratio to day 0); higher = more growth / less cytotoxicity; PDxO 3D drug screen, 96 h, CTG-3D normalised to day-0 seeding control.
# particulars: 100 µM; days in culture: 191
Reported values of CTG-3D luminescence at 96 h for individual entries
metric: CTG-3D luminescence at 96 h

1. NC(=O)c1cccc2cn(-c3ccc([C@@H]4CCCNC4)cc3)nc12 [niraparib]; -0.139
2. CC(C)(C(=O)NCC(F)(F)C(F)(F)F)C(=O)N[C@@H]1C(=O)Nc2ccccc2-c2ccccc21; 1.81
3. CN(Cc1cnc2nc(N)nc(N)c2n1)c1ccc(C(=O)N[C@@H](CCC(=O)O)C(=O)O)cc1 [methotrexate]; 1.33
4. C/C=C1\NC(=O)[C@H]2CSSCC/C=C/[C@H](CC(=O)N[C@H](C(C)C)C(=O)N2)OC(=O)[C@H](C(C)C)NC1=O [romidepsin]; -0.148
5. COc1cccc2c1C(=O)c1c(O)c3c(c(O)c1C2=O)C[C@@](O)(C(=O)CO)C[C@@H]3O[C@H]1C[C@H](N)[C@H](O)[C@H](C)O1 [doxorubicin]; 0.00895
6. CCc1c2c(nc3ccc(O)cc13)-c1cc3c(c(=O)n1C2)COC(=O)[C@]3(O)CC [SN-38]; 0.0208
7. CC[C@H](NC(=O)[C@H](C)NC)C(=O)N1C[C@@H](O)C[C@H]1Cc1c(-c2[nH]c3cc(F)ccc3c2C[C@@H]2C[C@H](O)CN2C(=O)[C@H](CC)NC(=O)[C@H](C)NC)[nH]c2cc(F)ccc12 [birinapant]; 0.188
